Data provenance is patent US20240116985A1.

Test target: T1, B-cat-Halo (UniProt P35222 2-781)
T1 sequence (looked up): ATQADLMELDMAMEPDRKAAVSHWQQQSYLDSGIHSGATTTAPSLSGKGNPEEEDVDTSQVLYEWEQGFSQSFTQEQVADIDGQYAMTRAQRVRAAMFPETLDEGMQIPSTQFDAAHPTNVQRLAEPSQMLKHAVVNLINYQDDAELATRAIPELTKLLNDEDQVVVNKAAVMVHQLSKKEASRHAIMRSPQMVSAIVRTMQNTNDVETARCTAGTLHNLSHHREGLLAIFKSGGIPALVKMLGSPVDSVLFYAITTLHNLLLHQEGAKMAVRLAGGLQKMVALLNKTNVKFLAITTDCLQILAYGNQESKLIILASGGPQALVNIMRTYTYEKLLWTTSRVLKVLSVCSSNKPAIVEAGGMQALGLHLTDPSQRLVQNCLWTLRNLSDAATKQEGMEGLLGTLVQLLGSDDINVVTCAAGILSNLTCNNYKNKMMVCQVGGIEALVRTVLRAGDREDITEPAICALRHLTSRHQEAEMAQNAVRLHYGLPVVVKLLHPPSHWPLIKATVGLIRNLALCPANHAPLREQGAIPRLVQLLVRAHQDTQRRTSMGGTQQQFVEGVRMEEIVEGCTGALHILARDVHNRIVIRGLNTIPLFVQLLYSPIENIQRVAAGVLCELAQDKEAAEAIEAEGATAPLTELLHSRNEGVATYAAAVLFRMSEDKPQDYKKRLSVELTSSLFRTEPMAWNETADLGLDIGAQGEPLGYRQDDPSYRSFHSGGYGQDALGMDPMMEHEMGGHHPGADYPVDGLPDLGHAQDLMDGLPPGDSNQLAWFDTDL
Method notes: cell-based or functional assay
Starred links: 1 amine or outer side, 2 acyl side, 3 side chain; linkers in the order of their positions; H or OH if unused. Positions of bridges follow the written chain, without caps; N, C: chain ends. Non-standard residues stand in square brackets, D forms with d. Primed or numbered codes have the meaning given here. PyrS2″ = (S)-3-amino-1-((pent-4-en-1-yloxy)carbonyl)pyrrolidine-3-carboxylic acid (stapling residue), C=CCCCOC(=O)N1CC[C@@](N[*:1])(C(=O)[*:2])C1; B5(5) = 2,2-bis(4-pentenyl)glycine, 2-amino-2-(pent-4-en-1-yl)hept-6-enoic acid (stitching residue), C=CCCCC(CCCC=C)(N[*:1])C(=O)[*:2]; TfeGA = (S)-2-amino-3-((carboxymethyl)(2,2,2-trifluoroethyl)amino)propanoic acid, O=C([C@H](CN(CC(=O)[*:3])CC(F)(F)F)N[*:1])[*:2]; PyrS2 = (S)-3-amino-1-((pent-4-en-1-yloxy)carbonyl)pyrrolidine-3-carboxylic acid, C=CCCCOC(=O)N1CC[C@@](N[*:1])(C(=O)[*:2])C1; B5(19) = 2-amino-2-(pent-4-en-1-yl)hept-6-enoic acid (bis(4-pentenyl)glycine), C=CCCCC(CCCC=C)(N[*:1])C(=O)[*:2]; B5(3) = 2,2-bis(4-pentenyl)glycine (stitching residue), C=CCCCC(CCCC=C)(N[*:1])C(=O)[*:2]; Phe(F5) = N[C@@H](Cc1c(F)c(F)c(F)c(F)c1F)C(=O)O; Bta = N[C@@H](Cc1csc2ccccc12)C(=O)O; hTyr = N[C@@H](CCc1ccc(O)cc1)C(=O)O; αAllylPro = C=CC[C@@]1(C(=O)O)CCCN1; tBuAla = CC(C)(C)C[C@H](N)C(=O)O; 3Thi = N[C@@H](Cc1ccsc1)C(=O)O; PyrS2(4) = not defined here; hSer = N[C@@H](CCO)C(=O)O; Nle = CCCC[C@H](N)C(=O)O
Binary call on NanoBRET Abs IC50 with cut-off 20 µM: strictly below means Satisfied, and equality or higher means Not satisfied.

These recorded examples may help you get a feel for the data.
Binder: Ac-[αAllylPro]D[tBuAla][B5(19)]D[Phe(F5)]AAF[hSer][PyrS2][3Thi][Bta]Q-NH2 (staple 1-4, 4-11) [I-1791]
Label value: Not satisfied

Binder: Ac-[αAllylPro]D[tBuAla][B5(3)]DHAAFL[PyrS2(4)][3Thi][Bta]Q-NH2 (staple 1-4, 4-11; not fully specified; reading uncertain) [I-1795]
Label value: Not satisfied

Binder: Ac-[αAllylPro]D[tBuAla][B5(19)]DYAAF[hSer][PyrS2][3Thi][Bta]Q-NH2 (staple 1-4, 4-11) [I-1783]
Label value: Not satisfied

Binder: Ac-[αAllylPro]D[tBuAla][B5(19)]DWAAFN[PyrS2][3Thi][Bta]Q-NH2 (staple 1-4, 4-11) [I-1788]
Label value: Not satisfied

Binder: Ac-[αAllylPro]D[tBuAla][B5(3)]DHAAFL[PyrS2″][3Thi][Bta]Q-NH2 (staple 1-4, 4-11; not fully specified; printed as Ac-PL3-Asp-Npg-B5-Asp-His-Ala-Ala-Phe-Leu-PyrS2-3Thi-BztA-Gln-NH2) [I-1796]
Label value: Not satisfied

Dear reviewer, please state whether Ac-[αAllylPro]D[tBuAla][B5(19)]D[TfeGA]AAF[Nle][PyrS2][3Thi][Bta]Q-NH2 (staple 1-4, 4-11) [I-1776] has NanoBRET Abs IC50 strictly beneath 20 µM.
Satisfied

Dear reviewer, please state whether Ac-[αAllylPro]D[tBuAla][B5(5)]D[TfeGA]AAF[tBuAla][PyrS2″][3Thi][Bta]Q-NH2 (staple 1-4, 4-11) [I-1773] has NanoBRET Abs IC50 strictly beneath 20 µM.
Satisfied

Dear reviewer, please state whether Ac-[αAllylPro]D[tBuAla][B5(3)]DHAAF[hSer][PyrS2″][3Thi][Bta]Q-NH2 (staple 1-4, 4-11; not fully specified; printed as Ac-PL3-Asp-Npg-B5-Asp-His-Ala-Ala-Phe-Hse-PyrS2-3Thi-BztA-Gln-NH2) [I-1794] has NanoBRET Abs IC50 strictly beneath 20 µM.
Not satisfied

Dear reviewer, please state whether Ac-[αAllylPro]D[tBuAla][B5(19)]D[hTyr]AAFN[PyrS2][3Thi][Bta]Q-NH2 (staple 1-4, 4-11) [I-1785] has NanoBRET Abs IC50 strictly beneath 20 µM.
Not satisfied

Dear reviewer, please state whether Ac-[αAllylPro]D[tBuAla][B5(19)]D[hTyr]AAF[hSer][PyrS2][3Thi][Bta]Q-NH2 (staple 1-4, 4-11) [I-1786] has NanoBRET Abs IC50 strictly beneath 20 µM.
Not satisfied
